The following compounds have recorded pKi on human FAAH (Homo sapiens, UniProt O00519).
pKi: −log10 of the molar value.

Example cases with answers are listed next.
BrC1=NO[C@@H](c2ccc3c(c2)OCO3)C1 (racemic): ≥ 7.00
CC1(c2ccc(OC(F)(F)F)cc2)CC(Oc2ccc(-c3nccs3)nc2)=NO1 (racemic): ≥ 7.00
CNC(=O)c1ccc(OC2=NOC(C)(c3ccc(OC(F)(F)F)cc3)C2)cn1 (racemic): ≥ 7.00
CCOC(=O)c1cccc(-c2ccc(OC3=NOC(c4ccc(OC(F)(F)F)cc4)C3)cn2)c1 (racemic): 6.00 to 7.00
O=C(O)c1ccc(OC2=NOC(c3ccc(Br)cc3)C2)cn1 (racemic): ≥ 7.00

Query: GET /values?readout=pKi&item= BrC1=NOC(c2ccc(Oc3ccccc3)cc2)C1 (single isomer, unassigned)
Reply: ≥ 7.00

---

- test system: UniProtKB O00519
- Sequence (O00519 1-579): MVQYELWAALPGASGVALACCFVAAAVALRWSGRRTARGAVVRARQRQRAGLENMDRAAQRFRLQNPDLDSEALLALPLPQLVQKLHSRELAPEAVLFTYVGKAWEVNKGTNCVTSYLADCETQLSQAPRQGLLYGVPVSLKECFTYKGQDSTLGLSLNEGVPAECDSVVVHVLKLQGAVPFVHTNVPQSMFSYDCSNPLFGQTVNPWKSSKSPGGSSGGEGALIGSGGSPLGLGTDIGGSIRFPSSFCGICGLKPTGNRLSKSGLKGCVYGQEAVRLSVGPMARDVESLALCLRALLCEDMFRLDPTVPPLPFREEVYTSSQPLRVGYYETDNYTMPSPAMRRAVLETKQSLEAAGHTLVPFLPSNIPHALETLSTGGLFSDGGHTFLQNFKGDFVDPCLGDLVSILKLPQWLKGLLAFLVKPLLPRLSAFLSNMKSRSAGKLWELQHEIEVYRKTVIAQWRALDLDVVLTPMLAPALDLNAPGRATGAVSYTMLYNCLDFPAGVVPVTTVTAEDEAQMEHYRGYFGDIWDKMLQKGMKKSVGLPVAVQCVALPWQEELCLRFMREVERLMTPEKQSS
pKi: −log10 of the molar value.
measured attribute: pKi

O=C(c1ccc([C@H]2CC(Br)=NO2)cc1)N1CCOCC1 (racemic) [I-202]: 6.00 to 7.00
c1ccc(OC2=NOC(c3ccc(Oc4ccccc4)cc3)C2)cc1 (single isomer, unassigned) [I-23]: ≤ 6.00
CS(=O)(=O)c1ncc(OC2=NOC(c3ccc(OC(F)(F)F)cc3)C2)cn1 (racemic) [I-133]: ≥ 7.00
CC1(c2ccc(OC(F)(F)F)cc2)CC(Oc2cc3ccccn3n2)=NO1 (racemic) [I-172]: ≤ 6.00

Query: GET /values?readout=pKi&item= N#Cc1ccc(OC2=NOC(c3ccc(OC(F)(F)F)cc3)C2)cn1 (racemic) [I-178]
Reply: 6.00 to 7.00

Query: GET /values?readout=pKi&item= N#Cc1ccccc1OC1=NOC(c2ccc(Oc3ccccc3)cc2)C1 (single isomer, unassigned) [I-28]
Reply: ≤ 6.00

Query: GET /values?readout=pKi&item= c1ccc(Oc2ccc(C3CC(Oc4cnc5ccccc5c4)=NO3)cc2)cc1 (single isomer, unassigned) [I-42]
Reply: ≥ 7.00

Query: GET /values?readout=pKi&item= COc1ncc(OC2=NOC(c3ccc(Oc4ccccc4)cc3)C2)cn1 (racemic) [I-66]
Reply: ≥ 7.00

Query: GET /values?readout=pKi&item= CS(=O)(=O)c1ccc(OC2=NO[C@@H](c3ccc(C(=O)NCc4ccccc4)cc3)C2)cn1 (racemic) [I-214]
Reply: ≥ 7.00

Query: GET /values?readout=pKi&item= FC(F)(F)c1cccc(OC2=NOC(c3ccc(Oc4ccccc4)cc3)C2)c1 (single isomer, unassigned) [I-26]
Reply: ≤ 6.00

Query: GET /values?readout=pKi&item= Cn1nc(C(F)(F)F)cc1OC1=NOC(c2ccc(Oc3ccccc3)cc2)C1 (racemic) [I-257]
Reply: 6.00 to 7.00

Query: GET /values?readout=pKi&item= Cc1noc(-c2cccc(OC3=NOC(c4ccc(OC(F)(F)F)cc4)C3)c2)n1 (racemic) [I-199]
Reply: ≤ 6.00

Query: GET /values?readout=pKi&item= CCS(=O)(=O)c1ccc(OC2=NOC(C)(c3ccc(OC(F)(F)F)cc3)C2)cn1 (racemic) [I-196]
Reply: ≥ 7.00

Query: GET /values?readout=pKi&item= FC(F)(F)Oc1ccc([C@H]2CC(Br)=NO2)cc1Cl (racemic) [I-124]
Reply: ≥ 7.00

---

# Lookup of reported Ki keyed by entry
- test system: human FAAH (Homo sapiens)
- Construct: host or cells: COS-7 cells, transient transfection; 13,000 g membrane fraction solubilised in 1% Triton X-100
- assay procedure: Inhibition of human FAAH (AMC arachidonoyl amide fluorescence assay)
- Assay type: biochemical
- condition parameters: inhibitor preincubated 30 minutes at room temperature; 20 μM AMC arachidonoyl amide; 4 hours; read-out: Activity (Ki, inhibitors of human FAAH)

Example cases with answers are listed next.
O=S(=O)(c1ccc(OC2=NOC(c3ccc(OC(F)(F)F)cc3)C2)cn1)C1CCCC1 (racemic): 100 to 1000 nM
CCCCOc1ccc([C@H]2CC(Oc3cncnc3)=NO2)cc1 (racemic): ≤ 100 nM
FC(F)(F)Oc1ccc(C2CC(Oc3ccc(-c4ccco4)nc3)=NO2)cc1 (racemic): ≤ 100 nM
CC1(c2ccc(OC(F)(F)F)cc2)CC(Oc2ccc(-n3cccn3)nc2)=NO1 (racemic): ≤ 100 nM
CCCCOc1ccc([C@H]2CC(Br)=NO2)cc1 (racemic): ≤ 100 nM
CSc1ccc(OC2=NOC(c3ccc(OC(F)(F)F)cc3)C2)cn1 (racemic): ≤ 100 nM

Query: GET /values?readout=Ki&item= CS(=O)(=O)c1ccc(OC2=NO[C@@H](c3ccc(Br)cc3)C2)cn1 (racemic)
Reply: ≤ 100 nM

Query: GET /values?readout=Ki&item= Fc1ccccc1OC1=NOC(c2ccc(Oc3ccccc3)cc2)C1 (racemic)
Reply: 100 to 1000 nM

---

- test system: UniProt:O00519
measured attribute: Ki

Example cases with answers are listed next.
FC1(F)Oc2ccc([C@H]3CC(Oc4cncnc4)=NO3)cc2O1 (racemic): 100 to 1000 nM
CC(C)Oc1ccc([C@H]2CC(Oc3ccc(C(=O)O)nc3)=NO2)cc1 (racemic): ≤ 100 nM

Query: Param readout = Ki; param system = UniProt:O00519; param query = BrC1=NOC(CCOc2ccccc2)C1 (single isomer, unassigned) ; response: value
Reply: 100 to 1000 nM

---

# Lookup of reported Ki keyed by entry
Target chain: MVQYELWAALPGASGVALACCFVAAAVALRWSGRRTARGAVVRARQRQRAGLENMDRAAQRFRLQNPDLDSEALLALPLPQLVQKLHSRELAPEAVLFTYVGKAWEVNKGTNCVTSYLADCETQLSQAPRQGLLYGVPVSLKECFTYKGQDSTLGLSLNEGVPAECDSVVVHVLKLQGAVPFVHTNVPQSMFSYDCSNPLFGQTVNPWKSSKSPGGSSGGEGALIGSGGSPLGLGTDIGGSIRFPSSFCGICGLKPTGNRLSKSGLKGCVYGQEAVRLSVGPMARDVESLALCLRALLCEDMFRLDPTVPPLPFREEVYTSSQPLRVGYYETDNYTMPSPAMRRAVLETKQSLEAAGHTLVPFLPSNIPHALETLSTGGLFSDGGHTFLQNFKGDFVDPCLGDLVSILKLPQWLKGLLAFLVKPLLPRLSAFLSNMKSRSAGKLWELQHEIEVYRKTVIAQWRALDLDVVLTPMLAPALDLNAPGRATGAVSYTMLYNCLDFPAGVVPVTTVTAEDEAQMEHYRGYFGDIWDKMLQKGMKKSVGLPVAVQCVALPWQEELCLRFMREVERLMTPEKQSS

Cc1nnc(-c2cccc(OC3=NOC(c4ccc(OC(F)(F)F)cc4)C3)c2)o1 (racemic) [I-223]: ≤ 0.1 µM

Query: GET /values?readout=Ki&item= Clc1ccccc1C1CC(Br)=NO1 (single isomer, unassigned) [I-5]
Reply: 0.1 to 1 µM

Query: GET /values?readout=Ki&item= COc1ccc([C@H]2CC(Oc3cccnc3)=NO2)cc1 (racemic) [I-38]
Reply: 0.1 to 1 µM

Query: GET /values?readout=Ki&item= CC1(c2ccc(Oc3ccccc3)cc2)CC(Br)=NO1 (racemic) [I-76]
Reply: ≤ 0.1 µM

Entry source: patent US9149465B2
